Biological target: human type 1 glycine transporter (GlyT1) (Homo sapiens, UniProt P48067)
Construct: T98G cells (glioma cells) expressing human type 1 glycine transporter (GlyT1) were used
Sequence (P48067 1-706): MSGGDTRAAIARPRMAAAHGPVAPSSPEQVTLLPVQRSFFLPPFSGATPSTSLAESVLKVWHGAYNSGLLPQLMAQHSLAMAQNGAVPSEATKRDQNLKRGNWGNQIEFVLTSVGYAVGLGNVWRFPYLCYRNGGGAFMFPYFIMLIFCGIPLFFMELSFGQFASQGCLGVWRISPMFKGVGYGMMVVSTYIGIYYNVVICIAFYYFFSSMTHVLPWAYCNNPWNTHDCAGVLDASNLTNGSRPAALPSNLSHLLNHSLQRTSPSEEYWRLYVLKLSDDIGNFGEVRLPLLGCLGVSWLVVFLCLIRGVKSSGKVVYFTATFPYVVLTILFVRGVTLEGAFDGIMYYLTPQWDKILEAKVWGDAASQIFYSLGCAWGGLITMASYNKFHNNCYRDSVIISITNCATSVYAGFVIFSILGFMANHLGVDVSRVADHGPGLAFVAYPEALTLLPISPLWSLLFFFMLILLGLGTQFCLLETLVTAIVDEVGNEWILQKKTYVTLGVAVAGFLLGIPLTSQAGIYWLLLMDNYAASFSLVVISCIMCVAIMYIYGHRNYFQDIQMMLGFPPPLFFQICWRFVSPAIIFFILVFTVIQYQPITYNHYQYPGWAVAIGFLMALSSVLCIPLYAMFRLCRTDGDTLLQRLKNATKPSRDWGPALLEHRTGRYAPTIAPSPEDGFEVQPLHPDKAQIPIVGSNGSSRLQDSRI
Assay: Glycine uptake inhibition experiment ([3H]glycine uptake)
Format: cell-based
Conditions: GlyT1
Could you mark each record 1 (yes) if its IC50 falls strictly under 1000 nM, and 0 (no) if it equals or exceeds it?

For orientation, consider the following solved cases.
O=C(NC(c1ccc(F)c(F)c1F)C1(O)CCC(F)(F)CC1)c1ccnc(C(F)(F)F)c1Cl (stereo not shown)    0 (no)
O=C(N[C@@H](c1cccc(Br)c1)C1(O)CCCC1)c1nccc(C(F)(F)F)c1-n1ccnn1    0 (no)
Cc1cccc(C(=O)NC(c2cccc(F)c2Cl)[C@]2(O)CC[C@@H](F)CC2)c1Cl (single isomer, unassigned)    1 (yes)
O=C(NC(c1cccc(F)c1Cl)[C@]1(O)CC[C@@H](F)CC1)c1ccc(C(F)(F)F)nc1-n1ccnn1 (single isomer, unassigned)    0 (no)
O=C(NC(c1ncccc1Cl)[C@]1(O)CC[C@@H](F)CC1)c1nccc(C(F)(F)F)c1Cl (single isomer, unassigned) [Compound 361]    1 (yes)
CS(=O)(=O)c1nc(C(F)(F)F)ccc1C(=O)NC(c1cccc(F)c1Cl)[C@]1(O)CC[C@@H](F)CC1 (single isomer, unassigned)    1 (yes)

As a next step, examine the compound that follows.
Consider the compound COc1cccc(C(NC(=O)c2nccc(C(F)(F)F)c2Cl)C2(O)CCCC2)c1 (stereo not shown) [Compound 51] . Is its IC50 strictly less than 1000 nM?
1 (yes)
